# ASSAYED_TARGET: human β3-adrenergic receptor (Homo sapiens, UniProt P13945)
# Construct: A full-length human β3 gene is obtained from a human genomic library (made by Clontech) using this as the probe
# Sequence (P13945 whole entry): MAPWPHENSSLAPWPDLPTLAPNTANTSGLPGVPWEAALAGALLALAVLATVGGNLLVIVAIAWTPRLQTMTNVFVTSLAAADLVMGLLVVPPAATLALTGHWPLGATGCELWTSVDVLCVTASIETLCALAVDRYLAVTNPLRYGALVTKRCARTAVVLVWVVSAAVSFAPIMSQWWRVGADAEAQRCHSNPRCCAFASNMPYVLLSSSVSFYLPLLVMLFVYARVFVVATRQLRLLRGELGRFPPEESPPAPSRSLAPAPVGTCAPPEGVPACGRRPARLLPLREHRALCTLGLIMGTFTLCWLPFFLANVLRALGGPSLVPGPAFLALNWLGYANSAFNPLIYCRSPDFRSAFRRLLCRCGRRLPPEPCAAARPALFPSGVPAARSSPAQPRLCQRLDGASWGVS
# EXPERIMENTAL_DETAILS: Test Case 1-B: human β3-adrenergic receptor agonist activity (cAMP-Screen, 96-well)
# RUN_CONDITIONS: Test Case 1-B; CHO cells, cAMP
MEASURE: log10 of EC50 (log10 of the value in nM)
Units before log transform: nM; reported quantity: EC50; transform: log10.

Worked cases, answers included:
Cc1n[nH]c2cc(OCCNC[C@H](O)c3cccc(NS(=O)(=O)c4ccccc4Cl)c3)ccc12 ... 2.16
O=S(=O)(Nc1cccc([C@@H](O)CNCCOc2ccc3c(OC(F)F)n[nH]c3c2)c1)C1CC1 ... 1.58

Sample O=S(=O)(Nc1cccc([C@@H](O)CNCCOc2ccc3c(C4CC4)n[nH]c3c2)c1)C1CC1 [ex212] — what was its log10 of EC50? 1.46

Recorded log10 of EC50 for CCc1n[nH]c2cc(OCCNC[C@H](O)c3cccc(NS(=O)(=O)c4cccc(N)c4)c3)ccc12 , please? -0.60

Field request: log10 of EC50 | item: CCc1n[nH]c2cc(OCCNC[C@H](O)c3cccc(NS(=O)(=O)c4cnn(C)c4)c3)ccc12 1.46

Would you mind telling me what log10 of EC50 value was observed for CCc1n[nH]c2cc(OCCNC[C@H](O)c3cccc(NS(=O)(=O)CC(F)(F)F)c3)ccc12 ? 1.15

Requested field: log10 of EC50. Item: Cc1n[nH]c2cc(OCCNC[C@H](O)c3cccc(NS(=O)(=O)c4cc(N)ccc4F)c3)ccc12 -0.70

# query: log10 of EC50 of entry O=S(=O)(Nc1cccc([C@@H](O)CNCCOc2ccc3c(C4CC4)n[nH]c3c2)c1)C1CC1 [ex227] 1.49

====

Reported increase in MBP (%) values for a set of molecules
# System: pentobarbital-anesthetized rats
# EXPERIMENTAL_DETAILS: Test Case 9: effects on the blood pressure and heart rate in pentobarbital-anesthetized rats
# Assay type: in vivo, rat
# RUN_CONDITIONS: anesthetized male SD rats; 3 mg/kg intravenous over 30 seconds; maximum change, mean±standard deviation
Response body: numeric value in %, unit text excluded.

Example results:
O=S(=O)(Nc1cccc([C@@H](O)CNCCOc2ccc3c(OC(F)F)n[nH]c3c2)c1)C1CC1 [ex4] ... 2.4
CCc1n[nH]c2cc(OCCNC[C@H](O)c3cccc(NS(=O)(=O)c4cn[nH]c4)c3)ccc12 [ex149] ... 2.1
COc1n[nH]c2cc(OCCNC[C@H](O)c3cccc(NS(=O)(=O)c4cccc(N)c4)c3)ccc12 [ex41] ... 5.7
Cc1n[nH]c2cc(OCCNC[C@H](O)c3cccc(NS(=O)(=O)c4cc(N)ccc4F)c3)ccc12 [ex61] ... 4.7
Cc1n[nH]c2cc(OCCNC[C@H](O)c3cccc(NS(=O)(=O)c4cnn(C)c4)c3)ccc12 [ex79] ... 4.2
O=S(=O)(Nc1cccc([C@@H](O)CNCCOc2ccc3c(C4CC4)n[nH]c3c2)c1)C1CC1 [ex212] ... 2.1

Record request: increase in MBP (%) value, item Cc1n[nH]c2cc(OCCNC[C@H](O)c3cccc(NS(=O)(=O)c4ccccc4F)c3)ccc12 [ex235] 3.4

Endpoint output: increase in MBP (%) of O=S(=O)(Nc1cccc([C@@H](O)CNCCOc2ccc3c(OC(F)F)n[nH]c3c2)c1)c1cn[nH]c1 [ex113] . Value? 3.3

Each recorded value in this set is attributed to patent US20120225909A1.
